assay: Extraction ratio in human hepatic microsomes; type: ADME, Microsome; settings: liver microsomes, read-out: ERH
assayEndpoint: hepatic extraction ratio
Numbers only.

// below: answered molecules
smilesrepr=COC(=O)N1CCC[C@H](c2csc(-c3ccccc3NC(=O)c3ncc[nH]3)n2)C1 assayendpoint="hepatic extraction ratio" observedresult=0.75
smilesrepr=CC(=O)N1CCC[C@H](c2csc(-c3ccccc3NC(=O)c3ncc[nH]3)n2)C1 assayendpoint="hepatic extraction ratio" observedresult=0.78
smilesrepr=CS(=O)(=O)N1CCC[C@H](c2csc(-c3ccccc3NC(=O)c3nc4ccccc4[nH]3)n2)C1 assayendpoint="hepatic extraction ratio" observedresult=0.86
smilesrepr=CS(=O)(=O)N1CCC[C@H](c2csc(-c3ccccc3NC(=O)c3cnc[nH]3)n2)C1 assayendpoint="hepatic extraction ratio" observedresult=0.9

[in] Field request: hepatic extraction ratio | item: CCS(=O)(=O)N1CCC[C@H](c2csc(-c3ccccc3NC(=O)c3ncc[nH]3)n2)C1
[out] 0.95

* * *

assay: Extraction ratio in rat hepatic microsomes; format: ADME, Microsome; conditions: liver microsomes, read-out: ERH
Provide the recorded hepatic extraction ratio for the entries that follow.
Answers are plain numbers.

// worked examples, hepatic extraction ratio included
smilesrepr=CS(=O)(=O)N1CCC[C@H](c2csc(-c3ccccc3NC(=O)c3nc4ccccc4[nH]3)n2)C1 assayendpoint="hepatic extraction ratio" observedresult=0.87
smilesrepr=COC(=O)N1CCC[C@H](c2csc(-c3ccccc3NC(=O)c3ncc[nH]3)n2)C1 assayendpoint="hepatic extraction ratio" observedresult=0.69
smilesrepr=CCS(=O)(=O)N1CCC[C@H](c2csc(-c3ccccc3NC(=O)c3ncc[nH]3)n2)C1 assayendpoint="hepatic extraction ratio" observedresult=0.86
smilesrepr=CC(=O)N1CCC[C@H](c2csc(-c3ccccc3NC(=O)c3ncc[nH]3)n2)C1 assayendpoint="hepatic extraction ratio" observedresult=0.67

[in] Reported hepatic extraction ratio for CS(=O)(=O)N1CCC[C@H](c2csc(-c3ccccc3NC(=O)c3cnc[nH]3)n2)C1 : what is it?
[out] 0.71

* * *

biological target: Tyrosine-protein kinase receptor UFO (Homo sapiens, UniProt P30530)
Sequence (P30530 whole entry): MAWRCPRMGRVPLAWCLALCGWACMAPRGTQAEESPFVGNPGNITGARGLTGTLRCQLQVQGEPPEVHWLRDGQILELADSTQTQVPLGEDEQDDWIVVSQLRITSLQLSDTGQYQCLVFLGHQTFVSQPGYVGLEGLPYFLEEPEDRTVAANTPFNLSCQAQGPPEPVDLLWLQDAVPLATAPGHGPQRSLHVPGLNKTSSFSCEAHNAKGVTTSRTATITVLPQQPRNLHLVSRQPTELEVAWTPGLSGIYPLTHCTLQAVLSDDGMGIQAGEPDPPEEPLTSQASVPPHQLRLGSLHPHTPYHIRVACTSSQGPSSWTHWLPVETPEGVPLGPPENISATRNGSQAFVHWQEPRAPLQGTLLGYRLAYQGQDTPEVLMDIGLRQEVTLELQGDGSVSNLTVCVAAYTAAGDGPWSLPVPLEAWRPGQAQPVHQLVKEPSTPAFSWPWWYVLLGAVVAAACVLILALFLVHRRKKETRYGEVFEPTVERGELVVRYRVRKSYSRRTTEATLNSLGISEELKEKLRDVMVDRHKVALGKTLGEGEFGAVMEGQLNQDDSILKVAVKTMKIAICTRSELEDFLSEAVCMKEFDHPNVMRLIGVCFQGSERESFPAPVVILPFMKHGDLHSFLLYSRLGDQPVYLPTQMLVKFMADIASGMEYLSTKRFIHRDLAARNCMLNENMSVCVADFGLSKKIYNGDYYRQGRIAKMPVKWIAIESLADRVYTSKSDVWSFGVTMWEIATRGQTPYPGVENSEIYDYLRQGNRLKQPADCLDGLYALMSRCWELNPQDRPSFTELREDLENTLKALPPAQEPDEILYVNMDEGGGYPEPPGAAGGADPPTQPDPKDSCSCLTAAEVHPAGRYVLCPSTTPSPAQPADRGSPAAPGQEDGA
assayEndpoint: IC50

[in] For the compound COC(=O)N1CCC[C@H](c2csc(-c3ccccc3NC(=O)c3ncc[nH]3)n2)C1 , what IC50 is on record?
[out] > 1 µM

* * *

target: hERG (KCNH2) (Homo sapiens); experiment: Inhibition of human ERG at 10 uM relative to control
Sequence (Q12809 whole entry): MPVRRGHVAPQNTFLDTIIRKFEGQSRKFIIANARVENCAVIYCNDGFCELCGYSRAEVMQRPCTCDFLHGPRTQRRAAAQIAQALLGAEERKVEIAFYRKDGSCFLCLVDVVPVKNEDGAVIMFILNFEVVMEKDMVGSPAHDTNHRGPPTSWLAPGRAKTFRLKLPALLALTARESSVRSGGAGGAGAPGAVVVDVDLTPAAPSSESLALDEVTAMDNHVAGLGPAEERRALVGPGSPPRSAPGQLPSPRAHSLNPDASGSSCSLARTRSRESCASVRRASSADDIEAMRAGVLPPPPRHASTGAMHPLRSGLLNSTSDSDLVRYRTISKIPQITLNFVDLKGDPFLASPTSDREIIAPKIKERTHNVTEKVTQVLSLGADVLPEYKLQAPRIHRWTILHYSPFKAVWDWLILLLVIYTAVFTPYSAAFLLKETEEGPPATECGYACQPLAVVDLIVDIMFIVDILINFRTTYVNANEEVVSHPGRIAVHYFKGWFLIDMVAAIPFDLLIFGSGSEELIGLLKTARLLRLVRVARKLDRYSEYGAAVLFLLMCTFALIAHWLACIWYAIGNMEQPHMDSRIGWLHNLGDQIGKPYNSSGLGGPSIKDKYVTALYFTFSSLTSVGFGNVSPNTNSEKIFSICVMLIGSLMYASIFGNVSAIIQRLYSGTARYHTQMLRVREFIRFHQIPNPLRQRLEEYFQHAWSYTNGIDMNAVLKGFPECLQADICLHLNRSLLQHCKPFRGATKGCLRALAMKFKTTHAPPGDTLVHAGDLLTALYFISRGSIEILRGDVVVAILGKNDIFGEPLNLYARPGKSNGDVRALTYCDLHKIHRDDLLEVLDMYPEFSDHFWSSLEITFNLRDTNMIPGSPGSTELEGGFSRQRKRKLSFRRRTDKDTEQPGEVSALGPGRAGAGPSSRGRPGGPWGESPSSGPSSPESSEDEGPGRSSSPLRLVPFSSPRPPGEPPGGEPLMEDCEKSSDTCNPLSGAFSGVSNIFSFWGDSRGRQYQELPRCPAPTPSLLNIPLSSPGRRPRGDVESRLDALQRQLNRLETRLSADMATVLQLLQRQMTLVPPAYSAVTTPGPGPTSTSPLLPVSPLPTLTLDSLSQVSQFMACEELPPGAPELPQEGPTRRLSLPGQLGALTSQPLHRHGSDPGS
assayEndpoint: inhibition at 10 µM
Param answer (str): number followed by unit.

smilesrepr=CS(=O)(=O)N1CCC[C@H](c2csc(-c3ccccc3NC(=O)c3ncc[nH]3)n2)C1 assayendpoint="inhibition at 10 µM" observedresult=94%

Pending compound:
[in] Which inhibition at 10 µM is reported for this compound? CS(=O)(=O)N1CCO[C@H](c2csc(-c3cc(N4CCOCC4)ccc3NC(=O)c3ncc[nH]3)n2)C1
[out] 19%

* * *

test: Protein binding in rat plasma; format: ADME, cell-free; settings: read-out: PPB (converted)
assayEndpoint: fraction unbound
Numbers only.

[in] Give the measured fraction unbound of CS(=O)(=O)N1CCO[C@H](c2csc(-c3cc(N4CCOCC4)ccc3NC(=O)c3ncc[nH]3)n2)C1 .
[out] 0.1

* * *

assay: Permeability of the compound by PAMPA; assay type: physicochemical; conditions: read-out: permeability
assayEndpoint: Papp (×10⁻⁶ cm/s)
Give bare numbers, in ×10⁻⁶ cm/s.

smilesrepr=CS(=O)(=O)N1CCC[C@H](c2csc(-c3ccccc3NC(=O)c3ncc[nH]3)n2)C1 observedresult=15.7

The record that follows has no Papp shown yet.
[in] Field request: Papp | item: CS(=O)(=O)N1CCO[C@H](c2csc(-c3cc(N4CCOCC4)ccc3NC(=O)c3ncc[nH]3)n2)C1
[out] 18.4

* * *

assay: Protein binding in human plasma; format: ADME, cell-free; conditions: read-out: PPB (converted)
assayEndpoint: fraction unbound
Numbers only.

[in] State the recorded fraction unbound for this entry: CS(=O)(=O)N1CCO[C@H](c2csc(-c3cc(N4CCOCC4)ccc3NC(=O)c3ncc[nH]3)n2)C1
[out] 0.21

* * *

tested on: Liver; assay: Intrinsic clearance in rat liver microsomes; type: ADME, microsome
assayEndpoint: CLH (mL/min/kg)
One number for each entry, in mL/min/kg.

[in] // returns reported CLH for input CS(=O)(=O)N1CCO[C@H](c2csc(-c3cc(N4CCOCC4)ccc3NC(=O)c3ncc[nH]3)n2)C1
[out] 35
